- Test system: U-251
- experimental-details: NCI tumour cell line growth inhibition, 48 h
Active and inactive are the calls of the source. No stated cut-off is given here; in the data, active = GI50 up to about 1.1 µM and inactive = higher.
In this section we review reported GI50 values for a set of compounds.
endpoint: GI50

[[record]]
compound = "Nc1ccc(Nc2cc(O)nc(O)n2)cc1"
tested_system = "U-251"
endpoint = "GI50"
value = "> 100 µM (inactive)"

[[record]]
compound = "Cc1ccc2nc(-c3ccc(NC(=O)c4ccc(N)cc4)c(S(=O)(=O)O)c3)sc2c1"
tested_system = "U-251"
endpoint = "GI50"
value = "> 100 µM (inactive)"

[[record]]
compound = "C=C1C(=O)CC2C1CC(=O)/C(C)=C/CCC(C)(O)C2O (stereo not drawn)"
tested_system = "U-251"
endpoint = "GI50"
value = "10.8 µM (inactive)"


---

- System: NCI-H23
- experimental-details: NCI tumour cell line growth inhibition, 48 h
Activity calls are given as the source filed them. No stated cut-off is given here; in the data, active = GI50 up to about 1.1 µM and inactive = higher.
endpoint: GI50

[[record]]
molecule = "CCN(CC)CCn1nc(N)c2nc3cc(Cl)ccc3nc21"
value = "91.6 µM (inactive)"

[[record]]
molecule = "C=C1C(=O)OC2/C=C(\\CO)CC/C=C(\\CO)CC(OC(=O)C(C)C)C12 (stereo unspecified)"
value = "19.3 µM (inactive)"

[[record]]
molecule = "COc1cccc(N2C(Cl)C(=O)C2c2c[nH]c3ccccc23)c1 (stereo unspecified)"
value = "> 100 µM (inactive)"

[[record]]
molecule = "CCOC(=O)Nn1cnnc1Cc1ccccc1"
value = "> 100 µM (inactive)"

[[record]]
molecule = "O=c1[nH]c(=O)n(C2OC(CO)C(O)C2O)cc1OCC(F)(F)F (stereo unspecified)"
value = "> 100 µM (inactive)"

[[record]]
molecule = "COc1ccc(C(O)/C(=C/n2ccnc2)c2ccccc2)cc1OC (stereo unspecified)"
value = "> 100 µM (inactive)"

[[record]]
molecule = "Cc1ccc(C2NC(=N)NC3=C2CCOc2c3ccc3ccccc23)cc1 (stereo unspecified)"
value = "34.9 µM (inactive)"

[[record]]
molecule = "COc1ccc2c(c1)Oc1cc(O)ccc1[C@@H]2c1ccccc1C(=O)NC(C)c1ccccc1 (stereo partly specified)"
value = "16.1 µM (inactive)"

[[record]]
molecule = "CCNC(=S)N/N=C/c1cc(OC)ccc1O"
value = "> 100 µM (inactive)"

[[record]]
molecule = "COC(=O)c1nc(NC#N)nc(O)c1C"
value = "> 78.7 µM (inactive)"

[[record]]
molecule = "O=C1NC2C3CC(OCc4ccccc4)(OCc4ccccc4)C2OC3O1 (stereo unspecified)"
value = "> 50 µM (inactive)"

[[record]]
molecule = "CC(=O)C(C(=O)c1ccc(C)cc1)[C@@H]1OC(C)(C)O[C@@H]1[C@H]1COC(C)(C)O1 (stereo partly specified)"
value = "9.53 µM (inactive)"

[[record]]
molecule = "O=C1[C@@H]2C3C=CC([C@H]4C(=O)N(CO)C(=O)[C@@H]34)[C@@H]2C(=O)N1CO"
value = "> 92.9 µM (inactive)"

[[record]]
molecule = "CS(=O)(=O)OC1CN2CCC1CC2 (stereo unspecified)"
value = "> 100 µM (inactive)"

[[record]]
molecule = "CC1=NN=C(N)N/C1=C\\C(Sc1ccc(Cl)cc1)c1ccc(Cl)cc1Cl (stereo unspecified)"
value = "13.1 µM (inactive)"

[[record]]
molecule = "COc1cc2c(cc1OCCCC(=O)Nc1cc(C(=O)NCCCN(C)C)n(C)n1)N=CC1CCCN1C2=O (stereo unspecified)"
value = "11.5 µM (inactive)"


---

In this section we review reported GI50 values for a set of compounds.
- Test system: RPMI-8226
- experimental-details: NCI tumour cell line growth inhibition, 48 h
Active and inactive are the calls of the source. Rule as the data show it: active = GI50 up to about 1.1 µM and inactive = higher.
endpoint: GI50

[[record]]
compound = "O=C(/C=C/c1ccc(O)c(O)c1)Oc1ccccc1"
tested_system = "RPMI-8226"
endpoint = "GI50"
value = "3.17 µM (inactive)"

[[record]]
compound = "CC(=O)OCC1OC(n2c3c(cc(C#N)c2=O)CCCCCC3)C(OC(C)=O)C(OC(C)=O)C1OC(C)=O (stereo not drawn)"
tested_system = "RPMI-8226"
endpoint = "GI50"
value = "> 100 µM (inactive)"

[[record]]
compound = "Cc1ccc(C(=O)N2CCN(C(=O)c3ccc(C)cc3)c3ccccc32)cc1"
tested_system = "RPMI-8226"
endpoint = "GI50"
value = "3.03 µM (inactive)"

[[record]]
compound = "Nc1ccc(Nc2cc(O)nc(O)n2)cc1"
tested_system = "RPMI-8226"
endpoint = "GI50"
value = "> 100 µM (inactive)"

[[record]]
compound = "Cc1ccc(S(=O)(=O)NC(=N)N(C)N=O)cc1"
tested_system = "RPMI-8226"
endpoint = "GI50"
value = "> 100 µM (inactive)"

[[record]]
compound = "Cc1ccc(Cc2n[nH]c(=O)n2Nc2ccccc2)cc1"
tested_system = "RPMI-8226"
endpoint = "GI50"
value = "> 100 µM (inactive)"

[[record]]
compound = "O=P1(c2ccccc2)c2ccccc2-c2ccccc21"
tested_system = "RPMI-8226"
endpoint = "GI50"
value = "74.1 µM (inactive)"

[[record]]
compound = "COc1cc(OC)c(/C=N\\Nc2nc3ccccc3c(=O)n2-c2ccccc2)c(OC)c1"
tested_system = "RPMI-8226"
endpoint = "GI50"
value = "26.4 µM (inactive)"

[[record]]
compound = "COc1ccc(/C=C/c2cc(OC)c(OC)c(OC)c2)cc1OC"
tested_system = "RPMI-8226"
endpoint = "GI50"
value = "> 100 µM (inactive)"

[[record]]
compound = "CCOC(=O)C12CN(C34CC5CC(CC(C5)C3)C4)CC(C(=O)OCC)(C1=O)C(c1ccccc1)OC2c1ccccc1 (stereo not drawn)"
tested_system = "RPMI-8226"
endpoint = "GI50"
value = "16.5 µM (inactive)"

[[record]]
compound = "Nc1nc(Sc2ccc([N+](=O)[O-])cn2)c2nc[nH]c2n1"
tested_system = "RPMI-8226"
endpoint = "GI50"
value = "14 µM (inactive)"

[[record]]
compound = "O=C(CC1(O)C(=O)Nc2ccccc21)c1ccc(Cl)cc1Cl (stereo not drawn)"
tested_system = "RPMI-8226"
endpoint = "GI50"
value = "> 100 µM (inactive)"

[[record]]
compound = "COc1ncnc2c1cnn2Cc1cn(CCCCO)nn1"
tested_system = "RPMI-8226"
endpoint = "GI50"
value = "> 100 µM (inactive)"

[[record]]
compound = "COc1ccccc1NC(=O)CC(=O)n1nc(C)c(/N=N/c2ccccc2C(=O)O)c1C"
tested_system = "RPMI-8226"
endpoint = "GI50"
value = "> 100 µM (inactive)"

[[record]]
compound = "Cc1cc(O)cc2c1O[C@@]1(C)CCC3[C@@]4(C)CC[C@H](O)C(C)(C)C4CC[C@@]3(C)[C@H]1C2 (stereo partly drawn)"
tested_system = "RPMI-8226"
endpoint = "GI50"
value = "2.18 µM (inactive)"

[[record]]
compound = "O=C(Nc1ccccc1)c1nn(-c2cc(S(=O)(=O)O)c([N+](=O)[O-])cc2Cl)[n+](-c2cc(S(=O)(=O)[O-])c([N+](=O)[O-])cc2Cl)n1"
tested_system = "RPMI-8226"
endpoint = "GI50"
value = "> 100 µM (inactive)"

[[record]]
compound = "CCc1cccc(NC(=O)c2cc(/C=C/c3ccccc3)nc(S)n2)c1"
tested_system = "RPMI-8226"
endpoint = "GI50"
value = "> 100 µM (inactive)"

[[record]]
compound = "CC(=O)Oc1ccc2cc(Oc3ccccc3)c(=O)oc2c1"
tested_system = "RPMI-8226"
endpoint = "GI50"
value = "> 100 µM (inactive)"


---

- Tested on: A549
- experimental-details: NCI tumour cell line growth inhibition, 48 h
Active and inactive are the calls of the source. Rule as the data show it: active = GI50 up to about 1.1 µM and inactive = higher.
Possible outcomes: Y = active, N = inactive

[[record]]
compound = "C=C1C(=O)OC2/C=C(\\CO)CC/C=C(\\CO)CC(OC(=O)C(C)C)C12 (stereo unspecified)"
group = "N"

[[record]]
compound = "CCOc1ncn(-c2ccc(NC(=S)NC34CC5CC(CC(C5)C3)C4)cc2)n1"
group = "N"

[[record]]
compound = "C=C1CC(C)(c2cccc(Nc3nc4ccccc4c4occc34)c2)OC1=O (stereo unspecified)"
group = "N"

[[record]]
compound = "Cc1ccc(C(=O)CC(O)(C(F)(F)F)C(F)(F)F)cc1[N+](=O)[O-]"
group = "N"

[[record]]
compound = "Cc1cc2ccccc2oc(=O)/c1=N\\Nc1ccccc1"
group = "N"

[[record]]
compound = "CC(C)NC(=O)OCc1c(CO)c2c(n1C)-c1ccccc1CC2"
group = "N"

[[record]]
compound = "CN1CCN(C2CC(=O)c3c(Cl)sc(Cl)c32)CC1 (stereo unspecified)"
group = "N"

[[record]]
compound = "O=C1C2c3[nH]c4ccccc4c3C3CCCCCCC3C2C(=O)N1c1ccccc1 (stereo unspecified)"
group = "N"

[[record]]
compound = "O=C(O)CC(NC(=O)/C(=C/c1ccccc1O)NC(=O)c1ccccc1)C(=O)O (stereo unspecified)"
group = "N"

[[record]]
compound = "CC(=O)OC(C[C@H](C)[C@@H]1CC[C@]2(C)C3=CCC4C(C)(C)C(=O)CC[C@]4(C)C3CCC12C)C1OC1(C)C (stereo partly specified)"
group = "N"

[[record]]
compound = "Nc1ccccc1.O=C(O)C(C(F)(F)F)C(F)(F)F"
group = "N"

[[record]]
compound = "COc1cc(C2SCC(=O)N2c2ccc(Oc3ccc(Cl)cc3)c(Cl)c2)cc(OC)c1OC (stereo unspecified)"
group = "N"

[[record]]
compound = "CCOC(=O)/C(C)=C(/O)C(=O)OCC"
group = "N"

[[record]]
compound = "CCCCCCCCCCCCCCCCCCNc1ccn(C2OC(COP(=O)(O)OC3CC(n4cc(F)c(=O)[nH]c4=O)OC3COP(=O)(O)OCC3OC(n4ccc(N)nc4=O)C(O)C3O)C(O)C2O)c(=O)n1 (stereo unspecified)"
group = "Y"

[[record]]
compound = "ONCCCn1cnc2c(NC3CC3)ncnc21"
group = "N"

[[record]]
compound = "CC(C)(C)c1cc(OCc2nnc3sc(S)nn23)c(Cl)cc1OCc1nnc2sc(S)nn12"
group = "N"

[[record]]
compound = "COc1ccccc1NC(=S)N/N=C(/C)c1ccccn1"
group = "Y"

[[record]]
compound = "Nc1ccc(-c2nc3cc(F)ccc3s2)cc1Cl"
group = "N"

[[record]]
compound = "O=C(C=P(c1ccccc1)(c1ccccc1)c1ccccc1)c1ccccc1-c1ccccc1C(=O)C=P(c1ccccc1)(c1ccccc1)c1ccccc1"
group = "Y"

[[record]]
compound = "NC(=S)N1N=C2c3ccccc3CC[C@@H]2[C@@H]1c1ccccc1"
group = "N"

[[record]]
compound = "[N-]=[N+]=Nc1ccc2c(c1)Sc1ccccc1N2CCCCCl"
group = "N"

